IC50 listing for selected compounds.
system.under.test: CFTR (Homo sapiens, UniProt P13569)
Construct: results in the phosphorylation and opening of CFTR anion channels
Sequence (P13569 whole entry): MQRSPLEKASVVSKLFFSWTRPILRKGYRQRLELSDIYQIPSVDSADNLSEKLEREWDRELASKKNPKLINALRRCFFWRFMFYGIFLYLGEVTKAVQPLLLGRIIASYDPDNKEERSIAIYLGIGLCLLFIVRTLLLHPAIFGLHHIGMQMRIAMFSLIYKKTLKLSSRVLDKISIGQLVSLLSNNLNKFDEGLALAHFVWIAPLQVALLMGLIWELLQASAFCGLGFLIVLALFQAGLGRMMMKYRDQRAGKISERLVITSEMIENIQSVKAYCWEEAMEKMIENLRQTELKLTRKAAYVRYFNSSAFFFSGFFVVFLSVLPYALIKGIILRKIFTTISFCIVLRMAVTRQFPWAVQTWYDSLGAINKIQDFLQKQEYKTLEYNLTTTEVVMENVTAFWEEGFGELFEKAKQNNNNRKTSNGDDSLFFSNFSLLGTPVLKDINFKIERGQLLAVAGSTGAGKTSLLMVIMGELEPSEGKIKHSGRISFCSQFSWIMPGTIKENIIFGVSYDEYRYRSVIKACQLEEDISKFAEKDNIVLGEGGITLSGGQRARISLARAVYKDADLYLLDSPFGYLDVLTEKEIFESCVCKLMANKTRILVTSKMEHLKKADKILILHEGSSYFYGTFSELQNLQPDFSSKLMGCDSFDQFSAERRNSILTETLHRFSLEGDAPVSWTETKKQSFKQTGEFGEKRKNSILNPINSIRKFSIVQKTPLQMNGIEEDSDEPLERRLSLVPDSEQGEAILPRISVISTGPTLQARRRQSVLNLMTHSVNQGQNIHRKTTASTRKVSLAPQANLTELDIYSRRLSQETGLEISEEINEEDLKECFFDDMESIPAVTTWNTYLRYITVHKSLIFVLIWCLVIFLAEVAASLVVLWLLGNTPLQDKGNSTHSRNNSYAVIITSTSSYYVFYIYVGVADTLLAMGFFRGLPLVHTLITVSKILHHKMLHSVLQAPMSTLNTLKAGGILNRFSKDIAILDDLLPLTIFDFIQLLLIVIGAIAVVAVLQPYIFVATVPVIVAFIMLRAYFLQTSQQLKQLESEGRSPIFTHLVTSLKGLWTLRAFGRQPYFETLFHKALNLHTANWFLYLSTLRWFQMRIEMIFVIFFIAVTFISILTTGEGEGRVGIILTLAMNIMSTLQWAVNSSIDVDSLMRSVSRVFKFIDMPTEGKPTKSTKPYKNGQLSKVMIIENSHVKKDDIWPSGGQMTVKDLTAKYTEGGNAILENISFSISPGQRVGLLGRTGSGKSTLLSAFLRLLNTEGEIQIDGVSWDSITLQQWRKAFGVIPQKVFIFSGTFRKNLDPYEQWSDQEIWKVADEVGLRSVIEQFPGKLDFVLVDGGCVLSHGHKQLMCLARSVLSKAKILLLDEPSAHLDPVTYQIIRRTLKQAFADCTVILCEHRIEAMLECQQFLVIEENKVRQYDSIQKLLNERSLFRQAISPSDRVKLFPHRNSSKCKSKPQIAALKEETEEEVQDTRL
measurement.notes: T84 assay (FLIPR membrane potential dye, forskolin/IBMX-stimulated CFTR channel activity)
condition.notes: human colonic T84 cells, average of at least 2 runs unless annotated n = 1
Report the value in µM with no unit label.

Some solved cases for reference:
{"columns": ["chemical.structure", "IC50 (µM)"],
 "data": [
  ["O=C(c1n[nH]c(-c2cc(Cl)c(O)c(Cl)c2)n1)N1CCN(c2cccc(C(F)(F)F)c2)CC1", 6.9],
  ["O=C(NCc1ccccc1C(F)(F)F)c1n[nH]c(-c2cc(Cl)c(O)c(Cl)c2)n1", 18],
  ["O=C(NCc1ccc(OC(F)(F)F)cc1)c1n[nH]c(-c2cc(Cl)c(O)c(Cl)c2)n1", 9.11],
  ["O=C(c1nc(-c2cc(Br)c(O)c(Br)c2)n[nH]1)N1CCN(c2cccc(C(F)(F)F)c2)CC1", 6.93],
  ["O=C(NC(c1ccccc1)c1ccccc1)c1n[nH]c(-c2cc(Cl)c(O)c(Cl)c2)n1", 7.33]
]}

Provide measured IC50 value, entry: O=C(c1n[nH]c(-c2cc(Cl)c(O)c(Cl)c2)n1)N1CCC(Cc2ccccc2)CC1
7.05

Output measured IC50 for this item: O=C(c1nc(-c2cc(Br)c(O)c(Br)c2)n[nH]1)N1CCC(Cc2ccccc2)CC1
10.5

Specify IC50 for CN(Cc1cccc(C(F)(F)F)c1)C(=O)c1n[nH]c(-c2cc(Cl)c(O)c(Cl)c2)n1 and stop.
24.1
